- procedureSummary: method code SF-AS, from DOI: 10.1139/v66-154
propertyMeasured: logP

- O=[N+]([O-])C=Cc1ccccc1: 2.11
- O=[N+]([O-])/C=C/c1cccc(Cl)c1: 2.57
- CN(C)c1ccc(/C=C/[N+](=O)[O-])cc1: 2.67
- COc1cc(C=C[N+](=O)[O-])ccc1O: 1.88
- CC(=O)NC1=C(Nc2ccccc2)C(=O)c2ccccc2C1=O: 1.73
- CC1=C(O)c2ccccc2C(=O)C1=O: 1.2
- O=[N+]([O-])/C=C/c1ccc(O)cc1: 2.12
- O=[N+]([O-])/C=C/c1cccc([N+](=O)[O-])c1: 1.82
- O=C1C(Nc2ccccc2)=C(S(=O)(=O)c2ccccc2)C(=O)c2ccccc21: 3.38
- COC1=CC(=O)c2ccccc2C1=O: 1.35
- O=C1C=CC(=O)c2ccccc21: 1.71
- COC1=C(C)C(=O)c2ccccc2C1=O: 2.14
- CCCCSC1=CC(=O)c2ccccc2C1=O: 3.29
